# Tested on: Calu-3
# METHOD NOTES: cell viability relative to DMSO; higher = less toxic
# MEASUREMENT CONTEXT: 72 h; 1 nM
Below is a list of entries, each paired with its recorded cell viability value.
// note: answer is a bare numeric in %

As a guide, the following entries are already answered.
COMPOUND	UNIT SYMBOL	cell viability
COc1cc2ncn(-c3cc(OCc4ccccc4C(F)(F)F)c(C(N)=O)s3)c2cc1OC	%	95.9
CN(C)CCCSc1ccccc1NC(=O)/C=C/c1ccccc1 [cinanserin]	%	108
CCN(CC)CCOC(=O)C1(c2ccc([N+](=O)[O-])cc2)CCCC1 [nitrocaramiphen]	%	90
c1ccc(CNCc2ccc(CN3CCCNCCNCCCNCC3)cc2)nc1 [AMD-3465]	%	102
OC[C@H]1O[C@@H](Oc2cc(O)cc(/C=C/c3ccc(O)cc3)c2)[C@H](O)[C@@H](O)[C@@H]1O [polydatin]	%	100
Oc1ccc(Cl)c2cccnc12 [cloxyquin]	%	87.9
C/C=C1\NC(=O)[C@H]2CSSCC/C=C/[C@H](CC(=O)N[C@H](C(C)C)C(=O)N2)OC(=O)[C@H](C(C)C)NC1=O [romidepsin]	%	92.5
O=C(NC1CCN(CCCCC2(C(=O)NCC(F)(F)F)c3ccccc3-c3ccccc32)CC1)c1ccccc1-c1ccc(C(F)(F)F)cc1 [lomitapide]	%	101

The value of cell viability measured for the compound O=C1NCCc2[nH]c(-c3ccncc3)cc21 turned out to be 94

###

Recorded cell viability by entry
# Test system: HepG2
# METHOD NOTES: cell viability relative to DMSO; higher = less toxic
# MEASUREMENT CONTEXT: 72 h; 10 nM
Write the answer as a number in %, unit excluded.

MOLECULE	TESTED TARGET	UNIT SYMBOL	cell viability
CCCOc1ccc2[nH]c(NC(=O)OC)nc2c1	HepG2	%	95.8
CN1CCC(COc2cnc(-c3cccc(Cn4nc(-c5cccc(C#N)c5)ccc4=O)c3)nc2)CC1	HepG2	%	93.4
CO[C@@]1(NC(=O)C2SC(=C(C(N)=O)C(=O)O)S2)C(=O)N2C(C(=O)O)=C(CSc3nnnn3C)CS[C@@H]21 (stereo not given in full)	HepG2	%	89.7

Summary for this molecule, COC(=O)/C=C/C(=O)OCCN1C(=O)CCC1=O [diroximel-fumarate] : cell viability is 115

Just so you know, measured cell viability for CC(=O)OCC(=O)[C@@]12OC3(CCCC3)O[C@@H]1C[C@H]1[C@@H]3CCC4=CC(=O)C=C[C@]4(C)[C@@]3(F)[C@@H](O)C[C@@]12C [amcinonide] came out at 97.1

Query c1ccc(C[C@H](c2ccccc2)N2CCCCC2)cc1 (racemic) [1-(1,2-diphenylethyl)piperidine-(+/-)] yields cell viability of 103

The molecule listed as CN1CCC(Nc2ncc3ncnc(Nc4ccc(F)c(Cl)c4)c3n2)CC1 shows cell viability equal to 93.6

Please fill in: cell viability reported for CCc1c2c(nc3ccc(O)cc13)-c1cc3c(c(=O)n1C2)COC(=O)[C@]3(O)CC = 48.6

// sample O=C(O)/C=C1\CCCc2ccccc2[C@H]1O (racemic) , its cell viability was 96.5

Entry Nc1nccc2c1ncn2C1C=C(CO)C(O)C1O (stereo not given) , cell viability reported as 106

Data point: NC[C@@](O)(c1ccc(Cl)cc1)c1ccc(-c2cn[nH]c2)cc1 ; cell viability = 93.2

###

# Test system: U2OS
# METHOD NOTES: cell viability relative to DMSO; higher = less toxic
# MEASUREMENT CONTEXT: 72 h; 100 nM
List of cell viability values.
Kindly answer with a numeric value in %, unit omitted.

Here are 3 compounds together with their reported answers.
SMILES DATA	TESTED TARGET	cell viability / %
O=C(CCCCCCC(=O)NO)NO	U2OS	100
CO[C@H]1/C=C/O[C@@]2(C)Oc3c(C)c(O)c4c(O)c(cc(O)c4c3C2=O)NC(=O)/C(C)=C\C=C\[C@H](C)[C@H](O)[C@@H](C)[C@@H](O)[C@@H](C)[C@H](OC(C)=O)[C@@H]1C	U2OS	100
Cc1c(Cl)cccc1Nc1ccccc1C(=O)O	U2OS	101

The reported value for OC(c1ccc(-c2ccc(CN3CCN(Cc4ccncc4)CC3)cc2)c(F)c1)(C(F)(F)F)C(F)(F)F in terms of cell viability is 102

###

# Test system: Caco-2
# METHOD NOTES: cell viability relative to DMSO; higher = less toxic
# MEASUREMENT CONTEXT: 72 h; 10000 nM
VALUE KIND: cell viability (%)
# unit: % | format: bare number

Observe how each entry below is paired with its result.
MOLECULE	TESTED TARGET	UNIT SYMBOL	cell viability
O=C1/C(=C/c2ccccc2)C[C@@]2(O)[C@H]3Cc4ccc(O)c5c4[C@@]2(CCN3CC2CC2)[C@H]1O5	Caco-2	%	30
C=CC(=O)N1CCC[C@@H](n2nc(-c3ccc(Oc4ccccc4)cc3)c3c(N)ncnc32)C1	Caco-2	%	101

Please turn your attention to the following entry.
Lab note: measured cell viability of CCOC(=O)OC(C)OC(=O)[C@@H]1N2C(=O)[C@@H](NC(=O)[C@H](N)c3ccccc3)[C@H]2SC1(C)C (stereo partly drawn) was 104

###

drug sensitivity score: recorded values
# Test system: Caco-2
# METHOD NOTES: drug sensitivity score (DSS) for viability; higher = more toxic; extreme values may be limits of the assay
# MEASUREMENT CONTEXT: 72 h
Simply state the number, no unit and no words.

COMPOUND	VALUE KIND	TEST RESULT
OC(c1ccc(-c2ccc(CN3CCN(Cc4ccncc4)CC3)cc2)c(F)c1)(C(F)(F)F)C(F)(F)F	drug sensitivity score	2.4

The reported value for Oc1nc(-c2ccc(C(F)(F)F)cc2)nc2c1CSCC2 in terms of drug sensitivity score is 0

In plain terms, CCN(CC)C(=O)[C@@]1(c2ccccc2)C[C@H]1CN has a documented drug sensitivity score of 0

What the record says about C[C@@H](N)[C@H]1CC[C@H](C(=O)Nc2ccncc2)CC1 : drug sensitivity score is 0

Noted for CSc1ccc([C@H]2CN3CCC[C@H]3c3ccccc32)cc1 (racemic) [McN-5652-(+/-)] : its drug sensitivity score reads 0

###

# Test system: Calu-3
# METHOD NOTES: cell viability relative to DMSO; higher = less toxic
# MEASUREMENT CONTEXT: 72 h; 100 nM
Where a name gives a salt, the structure may show the parent alone.
VALUE KIND: cell viability (%)
Form entry: value (%) — number only.

So for C=C1CC[C@H](O)C/C1=C/C=C1\CCC[C@]2(C)[C@@H]([C@H](C)CCCC(C)(C)O)CC[C@@H]12 , the logged cell viability turned out to be 78.8

Value of cell viability reported for the compound CN1CCc2c(c3ccccc3n2Cc2ccc(C(=O)NO)cc2)C1 is 99.6

cell viability measured on COc1cc(/C=C/C(=O)N2CCN(CC(=O)N3CCCC3)CC2)cc(OC)c1OC [cinepazide] = 95.8

Per the record, CN(C)C(=O)COC(=O)Cc1ccc(OC(=O)c2ccc(NC(=N)N)cc2)cc1 [Camostat mesylate] has cell viability of 104

Entry Cc1ccc(/C(=C\CN2CCCC2)c2cccc(/C=C/C(=O)O)n2)cc1 , cell viability reported as 104

Entry O=C(NC1CCN(CCCCC2(C(=O)NCC(F)(F)F)c3ccccc3-c3ccccc32)CC1)c1ccccc1-c1ccc(C(F)(F)F)cc1 [lomitapide] — recorded cell viability = 98.4

The compound identified as CNC(=O)c1cccc2cc(Oc3ccnc4cc(OCC5(N)CC5)c(OC)cc34)ccc12 registered its cell viability at 101

###

Below, each entry is listed with its recorded cell viability.
# System: Calu-3
# METHOD NOTES: cell viability relative to DMSO; higher = less toxic
# MEASUREMENT CONTEXT: 72 h; 10000 nM
// return numeric value only (unit: %, not printed)

COMPOUND	UNIT SYMBOL	cell viability
COc1cc(-n2c(=S)[nH]c3ccccc3c2=O)c(Cl)cc1Cl	%	92.1
COCCN1CCN(Cc2ccc(-c3n[nH]c4c3C(=O)c3c(NC(=O)NN5CCOCC5)cccc3-4)cc2)CC1	%	55.8
Nc1ccncc1N	%	98.1
C/C=C/c1cc(OC)c(OC)cc1OC	%	105
Cc1cc(C(C)(C)C)cc(C)c1CC1=NCCN1	%	108

Lab note: Nc1n[nH]c2nc3ccccc3nc12 gave cell viability of 90.6

Input O=C(NC1CCN(CCCCC2(C(=O)NCC(F)(F)F)c3ccccc3-c3ccccc32)CC1)c1ccccc1-c1ccc(C(F)(F)F)cc1 [lomitapide] . Output cell viability: 1.2

Record summary for CN(C)CCCSC(=N)N : reported cell viability = 96.7

cell viability measured on C/C=C1\NC(=O)[C@H]2CSSCC/C=C/[C@H](CC(=O)N[C@H](C(C)C)C(=O)N2)OC(=O)[C@H](C(C)C)NC1=O = 2.5
